- Test system: HCT-116
- measurement notes: Inhibition of human HCT116 clonogenicity after 7 days by crystal violet staining by densitometric analysis
- Type: functional
Categorize each record by its inhibition (INH) using Low = under 20%, Mid = from 20% up to 50%, High = 50% and over

Check out these entries, answers already filled in.
- smiles structure: "COc1ccc(-c2coc3cc(O)c(OC)cc3c2=O)cc1"
  label: "Low"
- smiles structure: "COc1ccc2c(=O)c(-c3ccc(Cl)cc3)coc2c1C"
  label: "High"
- smiles structure: "COc1cc(OC)c2c(=O)c(-c3cccc(Cl)c3)coc2c1"
  label: "High"

Using the reported inhibition (INH), which band applies to `COc1ccc2c(=O)c(-c3ccccc3)coc2c1C` ?
High

Using the reported inhibition (INH), which band applies to `Cc1c(O)ccc2c(=O)c(-c3ccccc3)coc12` ?
Mid

Using the reported inhibition (INH), which band applies to `COc1ccc2c(=O)c(-c3ccc(OC)c(OC)c3)coc2c1` ?
Mid

Using the reported inhibition (INH), which band applies to `COc1cc(C)c2c(=O)c(-c3ccccc3)coc2c1` ?
High
